Collected folding stability dG values appear next to each entry.
B1: EHEE_rd2_1257 (parent)
chain: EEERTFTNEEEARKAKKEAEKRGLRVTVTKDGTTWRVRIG

variants of: B1; test: folding stability dG (cDNA display proteolysis); higher = more stable; conditions: PBS, room temperature
recordedMetric: folding stability dG

>>> print(df.to_string())
    mutantname           result
 0        L24I    1.16 kcal/mol
 1        K16L    1.95 kcal/mol
 2         T5W    2.45 kcal/mol
 3        K30Y    3.22 kcal/mol
 4        K17F    2.36 kcal/mol
 5         T5P   0.253 kcal/mol
 6         E3L       2 kcal/mol
 7        K16Y     2.2 kcal/mol
 8        G40T    2.51 kcal/mol
 9         E1W    3.19 kcal/mol
10        D31S    1.72 kcal/mol
11        T27N    1.15 kcal/mol
12        T29G   0.178 kcal/mol
13        K21H    1.82 kcal/mol
14        T33G    2.28 kcal/mol
15        E11D    2.28 kcal/mol
16        K17N    2.15 kcal/mol
17        T29I    2.36 kcal/mol
18        K21R    2.19 kcal/mol
19        R25T     1.9 kcal/mol
20        K14H    2.01 kcal/mol
21         E2G    1.66 kcal/mol
22        D31V    2.27 kcal/mol
23         E2N    1.81 kcal/mol
24        L24D   0.447 kcal/mol
25        R13E    2.22 kcal/mol
26        A19I    1.53 kcal/mol
27        T29K    1.34 kcal/mol
28        E20S   0.861 kcal/mol
29        E10V    1.86 kcal/mol
30        L24T   0.162 kcal/mol
31        I39R  -0.309 kcal/mol
32        I39W    1.62 kcal/mol
33        A19F    2.11 kcal/mol
34        R38T    2.33 kcal/mol
35        E18H    1.43 kcal/mol
36         T7V     1.7 kcal/mol
37         N8Q    1.12 kcal/mol
38        G40D    2.18 kcal/mol
39        A19K   0.052 kcal/mol
40        W35Y    1.35 kcal/mol
41         E1T    2.19 kcal/mol
42        K17T    2.11 kcal/mol
43        L24A   0.982 kcal/mol
44        A15L    2.02 kcal/mol
45        K30D    1.24 kcal/mol
46        V28M    2.37 kcal/mol
47        E11K   0.826 kcal/mol
48        K14V    1.83 kcal/mol
49        G32H   0.713 kcal/mol
50         T5N    1.29 kcal/mol
51        G40I    2.71 kcal/mol
52        G40W    3.26 kcal/mol
53        R36T    2.15 kcal/mol
54        L24R    1.19 kcal/mol
55         N8K     1.5 kcal/mol
56        V37C    1.05 kcal/mol
57        L24E   0.879 kcal/mol
58        R25H    2.15 kcal/mol
59        G40M    2.55 kcal/mol
60        D31Q     1.7 kcal/mol
61        T27Y    1.92 kcal/mol
62        R13G    1.37 kcal/mol
63         E9I    1.96 kcal/mol
64        V28Q  -0.917 kcal/mol
65        K16W    2.37 kcal/mol
66        E18N    1.48 kcal/mol
67        A19V   0.703 kcal/mol
68        T29N    1.09 kcal/mol
69        D31N    1.57 kcal/mol
70        R22M    2.18 kcal/mol
71        R36F    2.23 kcal/mol
72         R4K    1.97 kcal/mol
73        E20F    1.02 kcal/mol
74         T7F       2 kcal/mol
75        T27R    1.62 kcal/mol
76        V28T   0.613 kcal/mol
77        T29V    2.18 kcal/mol
78        E11N    1.18 kcal/mol
79        V26T   0.897 kcal/mol
80         E1P    2.07 kcal/mol
81         E2V     2.3 kcal/mol
82        K21N    2.06 kcal/mol
83        E20K    1.14 kcal/mol
84        A15F     3.5 kcal/mol
85         E9N   0.702 kcal/mol
86        T34W    2.08 kcal/mol
87        I39Q   0.241 kcal/mol
88        T33F    2.18 kcal/mol
89        T27K    1.43 kcal/mol
90         T5Y    2.17 kcal/mol
